System: A498
measurement_notes: NCI tumour cell line growth inhibition, 48 h
Calls of active or inactive are those of the source. Cut-off read from the data, not from the text of the source: active = GI50 up to about 1.1 µM and inactive = higher.
measured_property: GI50

Consider the worked cases shown below.
Cc1ccc(O)c(C(c2ccc(C(c3cc(C)ccc3O)c3cc(C)ccc3O)cc2)c2cc(C)ccc2O)c1
1.56 µM (inactive)
COc1ccc(/C(Cl)=C(\C#N)c2ccc(OC)c(OC)c2)cc1OC
> 100 µM (inactive)
CC1=NN(C(=O)CC(=O)Nc2ccc(C)cc2)C(=O)C1/N=N\c1ccc(S(=O)(=O)c2ccc(/N=N/C3C(=O)N(C(=O)CC(=O)Nc4ccc(C)cc4)N=C3C)cc2)cc1 (configuration not stated)
> 100 µM (inactive)
C=C1CC(Cn2cc(Br)c(=O)[nH]c2=O)(c2ccc(Br)cc2)OC1=O (configuration not stated)
1.22 µM (inactive)
COc1ccc(CNC(=O)[C@H](Cc2ccc(O)cn2)NC(C)=O)cc1
> 100 µM (inactive)
COC(=O)c1c2c(cc3c1CC1(Cc4ccccc4C1=O)C3)CCC2 (configuration not stated)
22.4 µM (inactive)

Lab note: `CCOC(=O)c1[nH]c2cc(OC)c(OC)cc2c1CN(C)C` gave GI50 of > 100 µM (inactive)

----------
Listing of recorded GI50 by entry.
Test system: NCI-H226
measurement_notes: NCI tumour cell line growth inhibition, 48 h
Activity calls are given as the source filed them. No stated cut-off is given here; in the data, active = GI50 up to about 1.1 µM and inactive = higher.

CC(=O)O[C@@H]1C2=C(C)C=C(O2)[C@H]2O[C@]2(C)C[C@H]2C=C(C(=O)O2)[C@H](OC(C)=O)CC1[C@@]1(C)CO1 (some centres undefined)
> 100 µM (inactive)
CC1=NN(C(=O)CC(=O)Nc2ccc(C)cc2)C(=O)C1/N=N\c1ccc(S(=O)(=O)c2ccc(/N=N/C3C(=O)N(C(=O)CC(=O)Nc4ccc(C)cc4)N=C3C)cc2)cc1 (centres undefined)
> 100 µM (inactive)
O=C(Cc1ccccc1)N/N=C(/c1nc2ccc([N+](=O)[O-])cc2nc1O)C(O)c1ccc(C(O)/C(=N/NC(=O)Cc2ccccc2)c2nc3ccc([N+](=O)[O-])cc3nc2O)cc1 (centres undefined)
> 100 µM (inactive)
O=C(CSc1nnc(Cc2ccccc2)o1)Nc1ccc(Cl)cc1Cl
> 100 µM (inactive)

Lab note: `COc1cc(-c2n[nH]cc2CCCC(=O)Nc2ccccc2[N+](=O)[O-])ccc1O` gave GI50 of > 100 µM (inactive)

Lab note: Nc1nc(Cl)nc2c1ncn2C1CC(O)C(CO)O1 (centres undefined) gave GI50 of 16.7 µM (inactive)

Lab note: `N=C(N)NS(=O)(=O)c1ccc(NC(=O)c2c3ccccc3nc3ccccc23)cc1` gave GI50 of 43.1 µM (inactive)

Lab note: `Clc1ccc(/C=N/c2ccc3c(c2)Cc2ccccc2-3)c(Cl)c1` gave GI50 of > 100 µM (inactive)

Lab note: `O=Cc1ccccc1CCn1c(=O)c2cc3c(=O)n(CCc4ccccc4C=O)c(=O)c3cc2c1=O` gave GI50 of > 100 µM (inactive)

----------
Listing of recorded GI50 by entry.
Tested on: A549
measurement_notes: NCI tumour cell line growth inhibition, 48 h
The source made the active and inactive calls. No stated cut-off is given here; in the data, active = GI50 up to about 1.1 µM and inactive = higher.

Consider the worked cases shown below.
O=c1c2cccnc2ncn1CCCN1CCOCC1
> 100 µM (inactive)
O=C1C=C(Nc2cccnc2)c2ccccc2C1=O
3.65 µM (inactive)
C[C@]12OC[C@H](c3ccccc3)N1C(=O)C1[C@H]2CC12SCCS2 (stereo not given in full)
> 100 µM (inactive)
CC(C)N1CCN(c2ccc(OCC3COC(Cn4cncn4)(c4ccc(Cl)cc4Cl)O3)cc2)CC1 (stereo not given) [TERCONAZOLE]
> 35.8 µM (inactive)
Cc1nc2c(o1)C(=O)c1ccccc1/C2=N/C1CCCCC1N (stereo not given)
1.46 µM (inactive)
Cc1ccc(O)c(C(c2ccc(C(c3cc(C)ccc3O)c3cc(C)ccc3O)cc2)c2cc(C)ccc2O)c1
1.67 µM (inactive)
C/C(CC(=O)Nc1ccccc1)=N\NC(N)=S
> 100 µM (inactive)
CCCNCCCCC(NC(C)=O)C(=O)NCc1ccccc1 (stereo not given)
> 100 µM (inactive)
CC(=O)c1cccc(NC(=O)/C(=N\NC(C)(C)C)c2c(O)c3ccccc3oc2=O)c1
> 100 µM (inactive)

Next molecule, please.
Lab note: CC(=O)C(CN1CCCCC1)C(c1ccccc1)c1c(O)c2ccccc2oc1=O (stereo not given) gave GI50 of > 100 µM (inactive)
